Overview of reported fold improvement ka across a group of binders:
molecular target: T1, eukaryotically produced human IL-6 (human, UniProt P05231 30-212); test: SPR; periplasmic fraction; against parental 29B11
T1 construct: also called eukIL-6; Euk IL-6
quantity_kind: fold improvement ka (fold)

binder="Fab 55E2 (Fab, V domains shown, VL-shuffled Fab of 29B11, periplasmic fraction; also called 55E2b) VH: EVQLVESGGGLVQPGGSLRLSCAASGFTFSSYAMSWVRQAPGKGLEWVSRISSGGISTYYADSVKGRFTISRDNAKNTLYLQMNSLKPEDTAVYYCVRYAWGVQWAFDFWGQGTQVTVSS VL: AQSVLTQPPSVSGSPGKTVTISCAGTSSDVGYGNYVSWYQQLPGMAPKLLIYDVNKRASGIADRFSGSKFANTASLTISGLQSEDEADYYCASYKRGDNAVFGGGTKLTVLG" result=2.21
binder="Fab 55H1 (Fab, V domains shown, VL-shuffled Fab of 29B11, periplasmic fraction; also called 55H1c) VH: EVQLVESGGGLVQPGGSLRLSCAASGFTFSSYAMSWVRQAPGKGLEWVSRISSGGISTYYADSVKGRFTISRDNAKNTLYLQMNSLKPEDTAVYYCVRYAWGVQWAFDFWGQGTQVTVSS VL: AQSVVTQPPSVSGSPGKTVTISCAGTSSDVGYGNYVSWYQQLPGMAPKLLIYDVSKRASGIADRFSGSKSGNTASLTISGLQSEDEADYVCASYRRGGTAVFGGGTHLTVLG" result=6.04
binder="Fab 47C2 (Fab, V domains shown, VL-shuffled Fab of 29B11, periplasmic fraction; also called 47C2 (R4)) VH: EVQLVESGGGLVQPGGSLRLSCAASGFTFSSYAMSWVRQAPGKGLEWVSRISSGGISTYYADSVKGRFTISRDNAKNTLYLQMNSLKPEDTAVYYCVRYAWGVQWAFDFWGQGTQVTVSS VL: LSYDLTQPPSVSGSPGKTVTISCAGTSSDVGYGNYVSWYQQLPGMAPKILIYDVNKRASGIADRFSGSKSGNTASLTISGLQSEDEADYYCASYRRGETIVFGGGTHLTVLG" result=4.54

From: patent US20220073604A1
